# EXPERIMENTAL TARGET: T1, cynomolgus monkey IgE (cynomolgus monkey)
# T1 construct: serum was used as the source of IgE; also called cynomolgus IgE; cyno IgE
# METHOD SUMMARY: capture ELISA, antibody coated; Test 1, Cyno 1 serum
Entries and their IgE concentration detected
Note: state the figure and append the unit.

Worked cases, IgE concentration detected given:
>>> endpoint_value("recombinant 6.605.1 (antibody, human IgG2, kappa, V domains shown, human IgG2 kappa; also called 6.605.1 (recombinant)) VH: QVHLVQSGAEVKMPGASVKVSCKASGYTFTSYGISWVRQAPGQGLEWMGWISAYNGNTNYAQKLQGRITMTTDTSTSTAYMDLRSLRSDDTAVYYCARDGDYYDPFDYWGQGTLVTVSS VL: DIQMTQSPSSLSASVGDRVTITCRTSQSISNWLNWYQQKPGKAPKLLIYGASTLKSGVPSRFSGSESGTDFTLTISSLQPEDFATYYCQQSYSTPPTFGQGTKVEIKR")
"120 ng/mL"
>>> endpoint_value("recombinant 5.396.1 (antibody, human IgG2, kappa, V domains shown, human IgG2 kappa, expressed in 293 Freestyle cells; also called 5.396.1 (recombinant)) VH: QVQLQQWGAGLLKPSETLSLTCAVYGGSFSGYYWSWIRQPPGKGLEWIGEIHHSGSTNYNPSLKSRVTISVDTSKNQFSLKLSSVTAADTAVYYCARDNWNDSFYYYYGMDVWGQGTTVTVSS VL: DIQMTQSPSSLSASVGDRVTITCRASQGISNHLAWFQQKPGKAPKSLIYAASSLQSGVPSKFSGSGSGTDFTLTISSLQPEDFATYYCQQYNRHPFTFGPGTKVDIKR")
"30 ng/mL"
>>> endpoint_value("6.605.1 Hc-H3Q,M13K,D82E Lc-T25A,T53S (antibody, human IgG2, kappa, V domains shown, human IgG2 kappa; the entries already hold the substitutions; also called 6.605.1 (H3Q,M13K,D82E-T25A,T53S); 6.605.1 QKE/AS) VH: QVQLVQSGAEVKKPGASVKVSCKASGYTFTSYGISWVRQAPGQGLEWMGWISAYNGNTNYAQKLQGRITMTTDTSTSTAYMELRSLRSDDTAVYYCARDGDYYDPFDYWGQGTLVTVSS VL: DIQMTQSPSSLSASVGDRVTITCRASQSISNWLNWYQQKPGKAPKLLIYGASSLKSGVPSRFSGSESGTDFTLTISSLQPEDFATYYCQQSYSTPPTFGQGTKVEIKR")
"133 ng/mL"

Now for another entry.
// query Find the measured IgE concentration detected of 5.396.1 Hc-S103N Lc-K61R (antibody, human IgG2, kappa, V domains shown, human IgG2 kappa; the entries already hold the substitutions S103N (Hc) and K61R (Lc); also called 5.396.1 (S103N/K61R); 5.396.1 N/R) VH: QVQLQQWGAGLLKPSETLSLTCAVYGGSFSGYYWSWIRQPPGKGLEWIGEIHHSGSTNYNPSLKSRVTISVDTSKNQFSLKLSSVTAADTAVYYCARDNWNDNFYYYYGMDVWGQGTTVTVSS VL: DIQMTQSPSSLSASVGDRVTITCRASQGISNHLAWFQQKPGKAPKSLIYAASSLQSGVPSRFSGSGSGTDFTLTISSLQPEDFATYYCQQYNRHPFTFGPGTKVDIKR and report it.
// result 41 ng/mL
